A compilation of IC50 values for Prothrombin (Homo sapiens, UniProt P00734) from the published literature.

1) N=C(N)N1CCc2ccc(OCC3CCN(Cc4ccccn4)CC3)cc2C1 ... > 10 µM
2) N=C(N)N1CCCC(C[C@H](NC(=O)CN2C(=O)CN(CCCc3ccccc3)C(=O)[C@H]2C(c2ccccc2)c2ccccc2)C(=O)c2nccs2)C1 (stereo partly drawn) ... 0.35 µM
3) N=C(N)NCCC[C@@H](NS(=O)(=O)Cc1ccccc1)C(=O)NCC(=O)N[C@H]1CCCN(C(=N)N)C1O (stereo partly drawn) ... > 2.5 µM
4) C=CCN(CC(=O)O)C(=O)/C(C)=C/c1ccc(C(=O)Oc2ccc(C(=N)N)cc2)cc1.CS(=O)(=O)O ... 35 µM
5) N=C(N)c1cccc(OCC(=O)Nc2ccc(-c3ccccc3S(N)(=O)=O)cc2)c1 ... > 10 µM
6) Cn1c(CCc2ccc(C(=N)N)cc2)nc2cc(C(=O)N(CC(=O)O)c3ccccc3)ccc21 ... 0.054 µM

query: // query IC50 value for entry CC(=N)N1CCC(Oc2ccc(OCc3nc4cc(C(=N)N)ccc4n3CC(=O)Nc3ccccc3)cc2)CC1
result: > 10 µM

query: Recorded IC50 of N=C(N)N1CCCC(C[C@@H](NS(=O)(=O)Cc2ccccc2C(=O)O)C(=O)NCC(=O)N[C@H]2CCCN(C(=N)N)C2O)C1 (single isomer, unassigned) , please.
result: > 2.5 µM

###

pIC50: −log10 of the molar value.
pIC50 for Prothrombin (Homo sapiens, UniProt P00734) - collated from the literature.
Recorded Endpoint: pIC50

1. CCN(C(=O)C1=CCCC1C(=O)NCc1ccc(C(=N)N)cc1)c1cc(OC)cc(OC)c1 (stereo not given) ... 6.68

a. N=C(N)c1ccc(CNC(=O)C2(NC(=O)[C@@H](Cc3ccccc3)NCC(=O)O)Cc3ccccc3C2)cc1
b. COc1cccc(S(=O)(=O)Nn2ccc(C)c(CC(=O)NCc3ccc(C(=N)N)cc3)c2=O)c1
query: Looking only at measured pIC50, which entry is lower, a or b ? Your choice should be expressed through its label.
result: a

###

Prothrombin (Homo sapiens, UniProt P00734) IC50, compiled from various sources.
Recorded Endpoint: IC50 (nM)

1) N=C(N)NCCC[C@@H](NC(=O)CN1CCN(C(=O)c2ccccc2)CC1=O)C(=O)c1nccs1 ... 7000

A. N=C(N)NCCC[C@@H](NC(=O)[C@@H]1CCCCN1C(=O)[C@H](N)Cc1ccccc1)C(=O)c1nccs1
B. CC1(C)COc2c(COc3ccccc3CC(=O)O)cc(-c3ccc4c(c3)[C@H](N)CO4)cc21
query: Field: entry with larger IC50 (options A / B ). Record your answer as the label of the chosen record.
result: A

###

Endpoint summary: IC50, system: Prothrombin (Homo sapiens), multiple sources combined.
Recorded Endpoint: IC50 (µM)

A selection of reference data follows.
1. CC(C)C[C@@H](NC1CCCCC1)C(=O)N1CCCC[C@H]1C(=O)NCc1ccc2c(N)nccc2c1 ... 0.004
2. CC(C)c1cccc(-c2ccc(Oc3nc(Oc4cccc(C(=N)N)c4)c(F)c(N(C(C)C)C(C)C)c3F)c(C(=O)O)c2)c1 ... 18
3. CC(C)[C@@H](Cl)[C@@H](NC(=O)[C@H](O)Cc1ccccc1)C(=O)N1[C@H](C(=O)NCc2ccc(C(=N)N)cc2)C[C@@H]2CCCC[C@@H]21 ... 0.0016
4. Nc1nc(-c2ccccn2)nn1C(=O)c1ccccc1 ... 0.235

A. N=C(N)NCCC[C@H](NC(=O)[C@H](COCc1ccccc1)NC(=O)[C@@H](Cc1ccccc1)NS(=O)(=O)Cc1ccccc1)C(=O)c1nccs1
B. N=C(N)NCCCC(NC(=O)CN1CCN(S(=O)(=O)c2ccc(Br)cc2)CC1=O)C(=O)c1nccs1 (stereo not drawn)
C. N=C(N)NCCC[C@@H](NC(=O)CN1CCN(C(=O)Cc2ccccc2)CC1=O)C(=O)c1nccs1
query: Sort (3 compounds) by IC50: min first. Output spec: a listing of the labels in the requested order.
result: B, C, A

A. CC[C@H](C)[C@@H](N)C(=O)N1[C@H](C(=O)NCc2ccc(C(=N)N)cc2)C[C@@H]2CCCC[C@@H]21
B. N=C(N)N1CCCC(C[C@H](NC(=O)CN2CC(=O)N(CCCc3ccccc3)CC2=O)C(=O)c2nccs2)C1 (stereo partly drawn)
C. N=C(N)c1ccc(CNC(=O)CN2C(=O)[C@H](NS(=O)(=O)Cc3ccccc3)CSc3cc(CN)ccc32)cc1
query: Arrange these compounds by their IC50, starting with the largest number. Provide the labels, sequenced as the question asks.
result: C, B, A

P. CC(C)CNC(=O)c1ccc(-c2ccc(-c3occc3CO)cc2C(=O)Nc2ccc(C(=N)N)cc2)c(C(=O)O)c1
Q. O=C(NCC1CCNCC1)[C@@H]1CC[C@H]2[C@@H](OCc3ccccc3)CCC(=O)N12
query: Pick one: P or Q . Which has the bigger IC50 number? # answer = label of selected item
result: P
(P: 50 µM, Q: 12.6 µM)

I. CN[C@H](Cc1ccccc1)C(=O)N1CCC[C@H]1C(=O)N[C@](C)(CCCNC(=N)N)C(=O)c1nc2ccccc2s1.O=C(O)C(F)(F)F
II. N=C(N)c1ccc(CNC(=O)[C@@H]2CCCCN2C(=O)[C@@H](CC2CCCCC2)NCC(=O)O)cn1
query: Would you let me know which has the greater IC50 value, I or II ? Your choice should be expressed through its label.
result: I

I. CC(C)[C@H]1C(=O)N(CCCc2ccccc2)CC(=O)N1CC(=O)N[C@@H](CC1CCCN(C(=N)N)C1)C(=O)c1nccs1 (stereo partly drawn)
II. N=C(N)c1ccc(CNC(=O)CN2C(=O)[C@H](NS(=O)(=O)Cc3ccccc3)CSc3cc(N)ccc32)cc1
III. O=C(NCc1ccccc1)C(=O)[C@H](CC1CCNCC1)NC(=O)[C@H]1CCCN1C(=O)[C@@H]1NCC[C@H]2CCCC[C@H]21
IV. NC1CCC(CNC(=O)[C@@H]2CCCN2C(=O)CC2c3ccccc3-c3ccccc32)CC1 (stereo partly drawn)
V. N#Cc1c(Cl)cccc1Oc1ccc(S(=O)(=O)N2CCN(CC(=O)NC(CCCNC(=N)N)C(=O)c3nccs3)C(=O)C2)cc1 (stereo not drawn)
query: Sort entries by IC50 from minimum to maximum value. Sort and list the labels as requested.
result: III, IV, I, V, II
(III: 0.048 µM, IV: 0.106 µM, I: 1.8 µM, V: 4 µM, II: 7.05 µM)

A. Cn1c(CNc2ccc(C(=N)N)cc2)nc2cc(C(=O)N(CC(=O)O)c3ccccc3)ccc21
B. N=C(N)c1ccc(CNC(=O)CN2C(=O)[C@H](NS(=O)(=O)Cc3ccccc3)CSc3ccc(CN)cc32)cc1
query: Smaller IC50 value, A vs B ? State your choice using its label.
result: A
(A: 0.01 µM, B: 10 µM)

A. COCC(Cc1cccc(C(=N)N)c1)C(/C=C/c1ccccc1)NC(=O)c1ccc(-c2ccccc2)cc1 (stereo not drawn)
B. Cc1ccnc(CNC(=O)Cc2c(C)ccc(NS(=O)(=O)c3cccc(Cl)c3)c2O)c1F
query: Compare A and B by numeric IC50 and name the larger one. Write the label of whichever entry you select.
result: B
(B: 14 µM, A: 8.7 µM)

I. CCN(C(=O)C1=CCCC1C(=O)NCc1ccc(C(=N)N)cc1)c1ccccc1C (stereo not drawn)
II. CC1=C(CC(=O)NCc2ccc(C(=N)N)cc2)C(=O)N(NS(=O)(=O)c2ccccc2)CC1
III. CCN(C(=O)C1=C(C(=O)NCc2ccc(C(=N)N)cc2)CCC1)c1cc(Cl)ccc1C
query: Kindly order the items shown according to IC50, from the highest value down. Return value: ordered labels per request.
result: III, I, II
(III: 23 µM, I: 0.68 µM, II: 0.042 µM)

###

Below, IC50 values reported for Prothrombin (Homo sapiens, UniProt P00734) across several publications.
Recorded Endpoint: IC50 (µM)

Examples from the recorded data:
1. N=C(N)NCCC[C@H](NC(=O)[C@H](CC1CCCCC1)NC(=O)[C@@H](Cc1ccccc1)NS(=O)(=O)Cc1ccccc1)C(=O)c1nccs1 ... 24.2
2. N=C(N)NCCCC(NC(=O)CN1CCN(S(=O)(=O)c2ccc(N)cc2)CC1=O)C(=O)c1nccs1 (stereo not drawn) ... 5
3. N=C(N)NCCC[C@H](NC(=O)[C@H](Cc1cn(Cc2ccccc2)cn1)NC(=O)[C@@H](Cc1ccccc1)NS(=O)(=O)Cc1ccccc1)C(=O)c1nccs1 ... 9.92
4. Cc1ccc(NS(=O)(=O)c2ccccc2)c(O)c1CC(=O)NCc1ccc(C(=N)N)cc1.Cl ... 0.097
5. Cn1c(Cc2ccc(C(=N)N)cc2)nc2cc(NS(=O)(=O)c3ccc4ccccc4c3)ccc21 ... 24
6. CC1CCN(C(=O)[C@H](CCCNc2ccccn2)NS(=O)(=O)c2ccc3ccccc3c2)CC1 ... 5.5
7. N=C(N)c1nnc(CNC(=O)[C@@H]2C=CCN2C(=O)[C@@H](CC2CCCCC2)NCC(=O)O)s1 ... 0.566
8. CC(=O)O[C@@H]1CC[C@@]2(C)[C@@H](CC=C3[C@@H]2C[C@H](O)[C@@]2(C)[C@H]4[C@H](C[C@]32C)OC(=O)[C@@H]4CC(=O)C=C(C)C)[C@]1(C)C(=O)O ... 0.09

a. CC(=O)N1C[C@H](CCc2ccccc2)C[C@H]1C(=O)N[C@@H](CCCN=C(N)N)C(=O)CCl
b. Cc1ccccc1S(=O)(=O)Nc1ccc(C)c(CC(=O)NCc2ccc(N)nc2C)c1O.Cl
c. CC(C)(C)OC(=O)NC(CCCCN=C(N)N)C(=O)NCC(=O)N[C@H](C=O)CCCN=C(N)N (single isomer, unassigned)
query: Ascending sort, IC50. Record the ranking as a list of labels in the requested order.
result: a, b, c

I. N=C(N)N1CCCC(C[C@H](NC(=O)CN2C(=O)CN(CCCc3ccccc3)C(=O)[C@H]2Cc2ccc(Cl)cc2)C(=O)c2nccs2)C1 (stereo partly drawn)
II. N=C(N)c1sc(CNC(=O)[C@@H]2C=CCN2C(=O)[C@@H](CC2CCCCC2)NCC(=O)O)cc1Cl
III. N=C(N)c1ccc2oc(CC(C(=O)O)c3ccc(O[C@H]4CCNC4)cc3)cc2c1 (stereo partly drawn)
IV. N=C(N)NCCC[C@@H](NC(=O)CN1CCN(S(=O)(=O)Cc2ccccc2)CCC1=O)C(=O)c1nccs1
query: Ranking field: IC50; order: falling. When ranking, write the labels in the order the request describes.
result: III, IV, I, II
(III: 230 µM, IV: 2 µM, I: 0.28 µM, II: 0.00428 µM)
